The reported measurements were obtained from the NIST ThermoML archive (doi:10.1016/j.jct.2016.08.005).

Can you tell me mass density for the items I'm about to list?
# test settings: 328.15 K; 35000 kPa; Liquid; Vibrating tube method
Give bare numbers, in kg/m3.

Some molecules with recorded mass density:
Cc1ccc(C)s1 : 979.25
Cc1cccs1 : 1012.52

Give mass density for each of the items listed below.
1. c1ccsc1
2. Cc1ccsc1

1. 1054.61
2. 1013.73

----------
# test settings: 328.15 K; 65000 kPa; Liquid; Vibrating tube method
Would you kindly list mass density for each of these molecules?
One number for each entry, in kg/m3.

c1ccsc1 : 1076.42

Kindly give each listed record's mass density.
1. Cc1ccc(C)s1
2. Cc1ccsc1

999.44
1034.03

What value of mass density has been recorded for this entry: Cc1cccs1
1033.2

----------
Please provide measured mass density for the entries that follow.
# test settings: 318.15 K; 30000 kPa; Liquid; Vibrating tube method
One number for each entry, in kg/m3.

Worked cases, answers included:
Cc1ccc(C)s1 : 984.44
Cc1cccs1 : 1018.23
c1ccsc1 : 1061.15

Please find the next compound below.
May I ask what mass density has been recorded for Cc1ccsc1 ?
1019.35

----------
# test settings: 328.15 K; 10000 kPa; Liquid; Vibrating tube method
± gives the expanded uncertainty stated by the source.
value kind: mass density
State the result as a value with its unit after it.

Solved entries:
Cc1ccc(C)s1 : 958.85 ± 0.5 kg/m3
Cc1cccs1 : 991.61 ± 0.52 kg/m3
Cc1ccsc1 : 993.26 ± 0.51 kg/m3

Turning to the following compound.
Data request, read-out mass density, for c1ccsc1
1032.58 ± 0.5 kg/m3

----------
# test settings: 323.15 K; 65000 kPa; Liquid; Vibrating tube method
± gives the expanded uncertainty stated by the source.
value kind: mass density

Cc1ccsc1 [3-methylthiophene] : 1038.24 ± 0.53 kg/m3
Cc1ccc(C)s1 [2,5-dimethylthiophene] : 1003.46 ± 0.5 kg/m3
Cc1cccs1 [2-methylthiophene] : 1037.48 ± 0.56 kg/m3

Please report the recorded mass density for c1ccsc1 [thiophene] .
1081.13 ± 0.56 kg/m3

----------
# test settings: 288.15 K; 100 kPa; Liquid; Vibrating tube method
value kind: mass density (kg/m3)
Numbers only, in kg/m3.

Example results:
Cc1ccsc1 : 1026.57
Cc1cccs1 : 1025.61
c1ccsc1 : 1070.54

# evaluate next
Requested field: mass density. Item: Cc1ccc(C)s1
990.41

----------
# test settings: 298.15 K; 15000 kPa; Liquid; Vibrating tube method
value kind: mass density (kg/m3)
Numbers only, in kg/m3.

Known results for molecules:
c1ccsc1 : 1071.07
Cc1ccsc1 : 1027.64
Cc1cccs1 : 1026.7

Sample Cc1ccc(C)s1 — what was its mass density?
991.93

----------
Exercise: state measured mass density for each of the molecules provided.
# test settings: 283.15 K; 55000 kPa; Liquid; Vibrating tube method
Numbers only, in kg/m3.

Study these solved cases before continuing.
c1ccsc1 : 1113.62
Cc1ccc(C)s1 : 1030.9
Cc1cccs1 : 1066.8

Now consider a different molecule.
Entry under review: Cc1ccsc1 . Reported mass density?
1066.97

----------
# test settings: 318.15 K; 25000 kPa; Liquid; Vibrating tube method
value kind: mass density (kg/m3)
Give bare numbers, in kg/m3.

Before answering, review these 3 worked examples.
c1ccsc1 [thiophene] : 1057.12
Cc1cccs1 [2-methylthiophene] : 1014.42
Cc1ccsc1 [3-methylthiophene] : 1015.6

Lab note: next molecule to report on.
What value of mass density has been reported for the following molecule? Cc1ccc(C)s1 [2,5-dimethylthiophene]
980.72
